Recorded values, source ChEMBL document CHEMBL4000146.

pEC50 reference
system: Influenza A virus; assay: microbe, parasite or virus in culture; conditions: H3N2, MDCK
pEC50: −log10 of the molar value.

Past entries and their recorded results:
- compound: "CSc1nc(NCCCCNc2ccnc3cc(Cl)ccc23)c(C#N)c(-c2ccccc2)n1"
  pEC50: "< 5.40"
- compound: "CCN(CC)CCCC(C)Nc1ccnc2cc(Cl)ccc12 (stereo not given)"
  pEC50: "< 4.70"
- compound: "CSc1nc(NCCCCNc2ccnc3cc(Cl)ccc23)c(C#N)c(-c2cccc([N+](=O)[O-])c2)n1"
  pEC50: "< 5.40"
- compound: "COc1ccc(-c2nc(SC)nc(NCCCCNc3ccnc4cc(Cl)ccc34)c2C#N)cc1"
  pEC50: "< 5.40"

Please look at the following compound next.
Please report the recorded pEC50 for CSc1nc(-c2ccccc2)c(C#N)c(N2CCN(c3ccnc4cc(Cl)ccc34)CC2)n1 .
< 4.00
